# key: entry, value: half-life at 1 μM
experiment: Metabolic stability assay (substrate depletion) in human liver cytosol fractions; conditions: both, human, liver cytosol fractions, pH 7.4, t1/2 [min] (Right), external validation, sheet Human, right compound
Write the number in h without appending the unit.

INSERT INTO measurements (molecule, reported_property, test_result) VALUES
  ('COc1ccc(CN2CC(N3CCc4ccccc43)C2)cc1 [COc1ccc(CN2CC(N3CCc4ccccc43)C2)cc1]', 'half-life at 1 μM', 1.37),
  ('COc1cccc(-c2c(C(=O)N3CCCCC3)nc3sccn23)c1 [COc1cccc(-c2c(C(=O)N3CCCCC3)nc3sccn23)c1]', 'half-life at 1 μM', 1.9),
  ('COc1cccc(-c2cn3c(n2)N(C(=O)c2ccoc2)CCC3)c1', 'half-life at 1 μM', 1.86),
  ('COc1cccc(CN2CCOC[C@H](O)C2)c1 [COc1cccc(CN2CCOC[C@H](O)C2)c1]', 'half-life at 1 μM', 0.47),
  ('O=C(c1cccs1)N1CCC(Oc2ccccc2)C1 (stereo not drawn) [O=C(c1cccs1)N1CCC(Oc2ccccc2)C1]', 'half-life at 1 μM', 0.638);

Please indicate half-life at 1 μM recorded for Cc1cc2cc(-c3c(C)noc3C)nc(Nc3ccccc3)c2o1 [Cc1cc2cc(-c3c(C)noc3C)nc(Nc3ccccc3)c2o1]
0.593

Specify reported half-life at 1 μM for the molecule shown: COc1ccc(C(=O)N2CCC3(CCC3OC)CC2)cc1 (stereo not drawn) [COc1ccc(C(=O)N2CCC3(CCC3OC)CC2)cc1]
1.17

Return half-life at 1 μM for the following molecule: COc1cccc(CN2CC[C@H](c3nnc(-c4ccco4)o3)C2)c1
1.97

* * *

test: Metabolic stability assay (substrate depletion) in human liver cytosol fractions; details: both, human, cytosol, pH 7.4, t1/2 (mean ± SD) (Human cytosol), control compounds, 17 plates, 1 μM, 2 mg/mL cytosol, pH 7.4, 37 °C
Reported property: half-life at 1 μM

State its half-life at 1 μM: Cc1cc(=O)n(-c2ccccc2)n1C [Antipyrine, reference compound]
> 2 h

* * *

The following molecules are shown together with reported t1/2 [min] (Left) values.
test: Metabolic stability assay (substrate depletion) in human liver cytosol fractions; details: external validation, sheet Human, left compound
The answer is to be given in min; state only the numeric part.

For the molecule N#Cc1ccc(CN2CC(Oc3ccc(F)c(F)c3)C2)cc1 [N#Cc1ccc(CN2CC(Oc3ccc(F)c(F)c3)C2)cc1] , report t1/2 [min] (Left).
71.4

* * *

assay: Metabolic stability assay (substrate depletion) in mouse liver cytosol fractions; conditions: external validation, sheet Mouse, left compound
Reported t1/2 [min] (Left) values follow for various compounds
The reply should be a number in min, with the unit left off.

The examples below pair each entry with its known result.
INSERT INTO results (compound, test_result) VALUES
  ('Cc1cccc(-c2noc([C@@H]3C[C@@H](O)CN3Cc3ccc(Cl)cc3)n2)c1', 23.64),
  ('CCN1c2cc(C(=O)Nc3ccc(Cl)cc3)ccc2C(=O)N2CCCCCC21 (stereo not drawn)', 56.1),
  ('CN(Cc1cccnc1)c1nc2c(c(=O)[nH]1)CCN(Cc1ccc(Cl)cc1)CC2', 74.11),
  ('COc1ccc(CN2C[C@H]3CN(Cc4ccc(Cl)cc4)CCN3C2=O)cc1', 82.24);

Could you please provide reported t1/2 [min] (Left) for CN(C)c1nc2c(c(=O)[nH]1)CCN(Cc1ccc(Cl)cc1)CC2 ? Thanks!
114.48

Using the record for O=C1[C@H]2CN(Cc3ccc(Cl)cc3)C[C@H]2C(=O)N1Cc1ccc2c(c1)OCO2 , state its measured t1/2 [min] (Left).
66.66

Assign t1/2 [min] (Left) to the following record: CN1C(=O)CO[C@H]2CN(Cc3ccc(Cl)cc3)C[C@H]21
116.11

Using the record for Cc1noc(-c2nc(-c3ccc(Cl)cc3)no2)n1 [Cc1noc(-c2nc(-c3ccc(Cl)cc3)no2)n1] , state its measured t1/2 [min] (Left).
15.6

Supply measured t1/2 [min] (Left) of CN1c2cc(C(=O)Nc3ccc(Cl)cc3)ccc2C(=O)N2CCCCC21 (stereo not drawn) in your reply.
83.39

* * *

test: Metabolic stability assay (substrate depletion) in mouse liver cytosol fractions; settings: external validation, sheet Mouse, left compound
Reported property: t1/2 [min] (Left) (min)
Use min as the unit, but write only the number.

# example entries with known answers
INSERT INTO results (compound, reported_property, test_result) VALUES
  ('CCN1c2cc(C(=O)Nc3ccc(Cl)cc3)ccc2C(=O)N2CCCCC21 (centres unmarked)', 't1/2 [min] (Left)', 25.75),
  ('O=C(Nc1ccc(-c2nnc3n2CCCC3)cc1)c1ccc(Cl)cc1', 't1/2 [min] (Left)', 117.12),
  ('OCC1(CN2CCCC2)CCN(Cc2ccc(Cl)cc2)CC1 [OCC1(CN2CCCC2)CCN(Cc2ccc(Cl)cc2)CC1]', 't1/2 [min] (Left)', 54.48),
  ('O=C(Nc1cccc(-c2nnc3n2CCCC3)c1)c1ccc(Cl)cc1', 't1/2 [min] (Left)', 56.47);

Okay, next one:
Look up and report measured t1/2 [min] (Left) for this entry: O=C1[C@H]2CN(Cc3ccc(Cl)cc3)C[C@H]2C(=O)N1CCc1ccccc1
47.51

* * *

assay: Metabolic stability assay (substrate depletion) in mouse liver cytosol fractions; settings: male, CD-1, mouse, liver cytosol fractions, pH 7.4, t1/2 [min] (Right), external validation, sheet Mouse, right compound
# cutoff 1 h applies to half-life at 1 μM; >= gives met, < gives not met

Observe how each entry below is paired with its result.
INSERT INTO measurements (compound, class_label) VALUES
  ('CN(C)c1nc2c(c(=O)[nH]1)CCN(Cc1ccc(Cl)c(F)c1)CC2', 'met'),
  ('CCOc1cc(=O)n2c(c1C(=O)Nc1ccc(Cl)c(F)c1)CCCC2', 'met');

Please indicate if the recorded half-life at 1 μM for O=C1[C@H]2CN(Cc3ccc(Cl)c(F)c3)C[C@H]2C(=O)N1CCc1ccccc1 meets or exceeds 1 h.
not met

Please check the record CN(C1CCOCC1)C1CCN(C(=O)c2cc[nH]n2)CC1 [CN(C1CCOCC1)C1CCN(C(=O)c2cc[nH]n2)CC1] and state if its half-life at 1 μM is at or above 1 h.
met

Reported half-life at 1 μM at or above 1 h? COc1cc(=O)n2c(c1C(=O)Nc1ccc(Cl)c(F)c1)CCCC2
met

Kindly determine if half-life at 1 μM recorded for COCC1CN(Cc2ccc(Cl)c(F)c2)CC12CCNCC2 (centres unmarked) is above or exactly 1 h.
met

Please check the record O=c1[nH]c(N2CCOCC2)nc2c1CCN(Cc1ccc(Cl)c(F)c1)CC2 and state if its half-life at 1 μM is at or above 1 h.
met

Is reported half-life at 1 μM greater than or equal to 1 h here: OCC1(CN2CCCC2)CCN(Cc2ccc(Cl)c(F)c2)CC1
met

Hi team, for O=C1NC2(CCN(C(=O)c3ccc(Cl)c(F)c3)CC2)CC1c1ccccc1 (centres unmarked) , is the recorded half-life at 1 μM at or above 1 h?
met

* * *

experiment: Metabolic stability assay (substrate depletion) in human liver cytosol fractions; settings: both, human, liver cytosol fractions, pH 7.4, t1/2 [min] (Right), external validation, sheet Human, right compound
Reported property: half-life at 1 μM

INSERT INTO measurements (molecule, reported_property, test_result) VALUES
  ('COc1ccc(CN2CCC(N3Cc4cccn4C3=O)CC2)cc1 [COc1ccc(CN2CCC(N3Cc4cccn4C3=O)CC2)cc1]', 'half-life at 1 μM', '> 2 h');

Give half-life at 1 μM for the following molecule: CN(Cc1ccccc1)C1CCOc2ccccc21 (stereo not shown) [CN(Cc1ccccc1)C1CCOc2ccccc21]
0.127 h

Answer with reported half-life at 1 μM of CC(C)CN1C(=O)c2cccn2CC1C(=O)N1CCN(C)CC1 (stereo not shown) [CC(C)CN1C(=O)c2cccn2CC1C(=O)N1CCN(C)CC1]
1.79 h

Provide one value: measured half-life at 1 μM of COc1ccccc1CN1CCC2(CC1)CC(O)CCO2 (stereo not shown) [COc1ccccc1CN1CCC2(CC1)CC(O)CCO2]
> 2 h

* * *

assay: Metabolic stability assay (substrate depletion) in human liver cytosol fractions; conditions: external validation, sheet Human, left compound
Reported property: t1/2 [min] (Left) (min)
Provide only the numeric value, understood in min.

Some compounds with recorded t1/2 [min] (Left):
INSERT INTO measurements (compound, reported_property, test_result) VALUES
  ('N#Cc1ccc(CN2CCC3(COc4ccccc4C(=O)N3)C2)cc1 (stereo not drawn)', 't1/2 [min] (Left)', 38.4),
  ('COc1ccc(-c2n[nH]c3ncc(-c4cccc(F)c4)nc23)c(C)c1', 't1/2 [min] (Left)', 75.8),
  ('N#Cc1cccc(-c2c(C(=O)N3CCCCC3)nc3sccn23)c1', 't1/2 [min] (Left)', 103.4);

Output t1/2 [min] (Left) of N#Cc1ccccc1CN1CCC2(CC1)CC(O)CCO2 (stereo not drawn) [N#Cc1ccccc1CN1CCC2(CC1)CC(O)CCO2]
80.3

Give a short answer stating reported t1/2 [min] (Left) for Cc1ccc(-c2noc([C@@H]3Cc4[nH]cnc4CN3Cc3cccc(C#N)c3)n2)cc1 .
63.4

Supply measured t1/2 [min] (Left) of N#Cc1ccc(CN2CCC(N3CCNC3=O)CC2)cc1 [N#Cc1ccc(CN2CCC(N3CCNC3=O)CC2)cc1] in your reply.
93.2

For the compound CCOc1cc(=O)n2c(c1C(=O)Nc1ccc(C#N)cc1)CCCC2 , give its measured t1/2 [min] (Left) value.
101.4

Answer with reported t1/2 [min] (Left) of Cc1noc(C)c1-c1cc(-c2cccc(F)c2)cn2cncc12 [Cc1noc(C)c1-c1cc(-c2cccc(F)c2)cn2cncc12]
90

Fill in t1/2 [min] (Left) for record N#Cc1cccc(CN2CCOC[C@H]2c2nc(-c3ccc(F)cc3)c[nH]2)c1
94.7
